Each recorded value in this set is attributed to patent US20160046618A1.

IC50 overview
Experimental system: human recombinant BACE1 (Homo sapiens (Human))
Sequence (P56817 46-501): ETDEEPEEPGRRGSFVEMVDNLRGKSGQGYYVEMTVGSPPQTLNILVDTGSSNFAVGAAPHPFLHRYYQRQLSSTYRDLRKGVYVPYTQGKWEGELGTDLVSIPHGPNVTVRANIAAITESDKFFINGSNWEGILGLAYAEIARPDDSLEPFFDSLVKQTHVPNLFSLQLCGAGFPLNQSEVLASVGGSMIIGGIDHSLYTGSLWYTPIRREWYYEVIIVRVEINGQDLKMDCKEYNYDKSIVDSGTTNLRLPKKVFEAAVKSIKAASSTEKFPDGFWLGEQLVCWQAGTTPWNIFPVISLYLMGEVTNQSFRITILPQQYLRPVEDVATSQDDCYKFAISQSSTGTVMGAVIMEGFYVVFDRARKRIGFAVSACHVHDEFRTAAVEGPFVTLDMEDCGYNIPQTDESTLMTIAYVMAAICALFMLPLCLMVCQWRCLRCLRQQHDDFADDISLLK
Test description: In vitro enzymatic BACE1 FRET assay
Format: biochemical
Recorded conditions: read-out: IC50 IP (μM) BACE1 enzyme
Protocol: These recombinant proteins were further purified using Ni-NTA affinity chromatography (Qiagen). […] This assay is effectively started by the addition of FRET substrate (50 nM) and the combination is incubated for one hour. The FRET assay is terminated by addition of Tris buffer, which raises the pH to neutrality, and the fluorescence is determined. […] Proteolytic cleavage of the FRET substrate releases quenching of fluorescence (excitation 488 nm and emission 590 nm).
Respond with the bare value in µM.

Input line: Entry C#C[C@H](C)Oc1cnc(C(=O)Nc2ccc(F)c([C@@]3(C)N=C(N)S[C@@]4(C(=O)NC5CC5)C[C@H]43)c2)cn1 [Example 993] , system human recombinant BACE1 (Homo sapiens (Human)): what IC50 was measured?
Output line: 0.00048

Input line: Give recorded IC50 with human recombinant BACE1 (Homo sapiens (Human)) for the following compound: C#CCOc1cnc2c(Nc3cc(C(=O)OC)c(F)c([C@@]4(C)N=C(N)S[C@@]5(C(=O)OC)C[C@H]54)c3)nccc2n1 [Example 856]
Output line: 0.071

###

Experimental system: human recombinant BACE1 (Homo sapiens (Human))
Test description: In vitro enzymatic BACE1 FRET assay
Assay type: biochemical
Recorded conditions: read-out: IC50 IP (μM) BACE1 enzyme
Each record is given rule met if its reported IC50 is strictly below 0.002 µM. Records at or above 0.002 µM are given rule not met.

A selection of reference data follows.
C#CCOc1cnc2c(Nc3cc(F)c(F)c([C@@]4(C)N=C(N)S[C@@]5(COC)C[C@H]54)c3)nccc2c1 [Example 733] = rule not met
C[C@]1(c2cc(Nc3nccc4nc(OCc5cocn5)cnc34)cc(F)c2F)N=C(N)S[C@@]2(C(F)F)C[C@@H]12 [Example 867] = rule met
C[C@]1(c2cc(NC(=O)c3ccc(Cl)cn3)ccc2F)N=C(N)S[C@@]2(C#N)C[C@H]21 [Example 929] = rule met
Cc1cc(OCC(F)(F)F)cnc1C(=O)Nc1ccc(F)c([C@@]2(C)N=C(N)S[C@@]3(C(F)F)C[C@@H]23)c1 [Example 680] = rule not met
C[C@]1(c2cc(Nc3nccc4nc(OCc5ncco5)cnc34)cc(F)c2F)N=C(N)S[C@@]2(CF)C[C@H]21 [Example 802] = rule met
COC[C@]12C[C@H]1[C@@](C)(c1cc(NC(=O)c3cnc(OCc4ccccc4)cn3)cc(F)c1F)N=C(N)S2 [Example 1033] = rule met
C[C@]1(c2cc(NC(=O)c3cnc(OCc4ncco4)cn3)cc(F)c2F)N=C(N)S[C@@]2(CF)C[C@H]21 [Example 811] = rule met
CN(C)C(=O)[C@]12C[C@H]1[C@@](C)(c1cc(NC(=O)c3cnc(OCC(F)(F)C(F)F)cn3)cc(F)c1F)N=C(N)S2 [Example 922] = rule met

Input line: Identify whether the compound C[C@]1(c2cc(NC(=O)c3cnc(OCC(F)(F)F)cn3)ccc2F)N=C(N)S[C@@]2(C(=O)N3CCOCC3)C[C@H]21 [Example 998] records IC50 below 0.002 µM.
Output line: rule met

Input line: Would you kindly verify if IC50 of C[C@]1(c2cc(NC(=O)c3ccc(OCC(F)(F)F)cn3)cc(F)c2F)N=C(N)S[C@@]2(C(=O)N3CCCC3)C[C@H]21 [Example 699] is strictly less than 0.002 µM?
Output line: rule met

Input line: Item C#CCOc1cnc2c(Nc3cc(F)c(F)c([C@@]4(C)N=C(N)S[C@@]5(CF)C[C@H]54)c3)nccc2n1 [Example 806] : IC50 beneath 0.002 µM, strictly?
Output line: rule met

Input line: Please determine if COC[C@]12C[C@H]1[C@@](C)(c1cc(NC(=O)c3ncc(OCc4ncco4)cc3C)ccc1F)N=C(N)S2 [Example 644] is below 0.002 µM in terms of IC50.
Output line: rule not met

Input line: Is IC50 of NC1=N[C@](CF)(c2cc(NC(=O)c3ccc(Cl)cn3)ccc2F)[C@@H]2C[C@]2(CCCO)S1 [Example 758] strictly below 0.002 µM?
Output line: rule met

Input line: Criterion: IC50 strictly below 0.002 µM. Is it met by C#CCOc1cnc(C(=O)Nc2cnc(OC)c([C@@]3(C)N=C(N)S[C@@]4(C#N)C[C@H]43)c2)cn1 [Example 964] ?
Output line: rule met

Input line: Answer whether the compound C#CCOc1cnc2c(Nc3cnc(F)c([C@@]4(C)N=C(N)S[C@@]5([C@H](OC)C(F)(F)F)C[C@H]54)c3)nccc2n1 [Example 676] has IC50 strictly less than 0.002 µM
Output line: rule met

Input line: Decide: IC50 of CC(C)(C)NC(=O)[C@]12C[C@H]1[C@@](C)(c1cc(NC(=O)c3cnc(OCC(F)(F)F)cn3)ccc1F)N=C(N)S2 [Example 1002] strictly below 0.002 µM?
Output line: rule met

Input line: Given COC1CN(C(=O)/C=C/[C@]23C[C@H]2[C@@](CF)(c2cc(NC(=O)c4ccc(Cl)cn4)ccc2F)N=C(N)S3)C1 [Example 766] , is recorded IC50 strictly lower than 0.002 µM?
Output line: rule met

Input line: Does the reported IC50 of the following compound sit strictly below 0.002 µM? C#CCOc1cnc(C(=O)Nc2cc(F)c(F)c([C@@]3(C)N=C(N)S[C@@]4(C(=O)N5CCCC5)C[C@H]43)c2)cn1 [Example 934]
Output line: rule met
